Biological target: CTHRC1-His (UniProt Q96CG8 30-243)
Sequence (Q96CG8 other isoform, or with tags, fused parts or gaps): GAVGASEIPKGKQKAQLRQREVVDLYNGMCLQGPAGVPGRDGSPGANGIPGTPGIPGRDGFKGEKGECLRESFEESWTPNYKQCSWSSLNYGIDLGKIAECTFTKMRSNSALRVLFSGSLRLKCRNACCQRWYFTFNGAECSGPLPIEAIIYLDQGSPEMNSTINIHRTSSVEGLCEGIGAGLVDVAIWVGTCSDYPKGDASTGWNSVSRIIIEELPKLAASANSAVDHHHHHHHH
Experiment: ELISA
Value Type: Kd (nM)

INSERT INTO measurements (binder, value_type, result_value) VALUES
  ('hCMAb45 humanized anti-CTHRC1 antibody (antibody, V domains shown) VH: QVQLVESGAEVKKPGASVKVSCKASGYSFTDYIILWVRQAPGQGLEWMGAINPYYGSTVYGQKFQGRLTITADGSMSTAYMELSSLRSEDTAVYYCARSGYGYDESAMDYWGQGTLVTVSS VL: DIVMTQTPLSLPVTPGEPASISCRSSKSLLNSDGFTYLDWYLQKPGQSPQLLIYLVSNRFSGVPDRFSGSGSGTDFTLKISRVEAEDVGVYYCFQSNYLPLTFGQGTKLEIK', 'Kd', 0.128),
  ('hCMAb96 humanized anti-CTHRC1 antibody (antibody, V domains shown) VH: QVQLVQSGAEVKKPGASVKVSCKASGYTFTSYWMHWVRQAPGQGLEWIGYIYPSSGTTNYNQKFQGRVTITADESTSTAYMELSPLRSEDTAVYYCTTESYWGQGTTVTVSS VL: DIQMTQSPSSLSASLGDTITITCHASQNINVWLAWYQQKPGKAPKLLIYKASNLHSGVPSRFSGSGSGTDFTLTISSLQPEDIATYYCQQGQSYPLTFGQGTKVEIK', 'Kd', 0.196),
  ('cCMAb45 anti-CTHRC1 chimeric antibody (antibody, V domains shown) VH: EVQLQQSGPELVKPGASVKISCKASGYSFTDYIMLWVKQSHGKSLEWIGNINPYYGSTSYNLKFKGKATLTVDKSSSTAYMQLNSLTSEDSAVYYCARSGYGYDESAMDYWGQGTSVTVSS VL: DVLMTQTPLSLPVNIGDQASISCKSTKSLLNSDGFTYLDWYLQKPGQSPQLLIYLVSNRFSGVPDRFSGSGSGTDFTLKISRVEAEDLGVYYCFQSNYLPLTFGSGTKLEIK', 'Kd', 0.257),
  ('cCMAb96 anti-CTHRC1 chimeric antibody (antibody, V domains shown) VH: QVQLQQPGSELVRPGASVKLSCKASGYTFTSYWMHWVKQRPGQGLEWIGNIYPSSGTTNYDEKFKNKATLTVDTSSTTAYMHLSSLTSEDSAVYYCTTESYWGQGTTLTVSS VL: DIVMTQSPSSLSASLGDTITITCHASQNINVWLSWYQQKPGNIPKLLIYKASNLHTGVPSRFSGSGSGTGFTLTISSLQPEDIATYYCQQGQSYPLTFGGGTKLEIK', 'Kd', 0.187);

This collection of values is drawn from patent US20220204599A1.
